# credit: patent US20120251547A1

Target: T1, huIL-17RA-FLAG-polyHis (human, UniProt Q96F46 33-320)
T1 construct: also called IL-17RA-FLAG-pHis; wild-type IL-17RA
Experiment: binning; IL-17RA held by bead mAb M
quantityMeasured: normalized MFI
Numbers only.

Solved cases below.
{"columns": ["binder", "normalized MFI"],
 "data": [
  ["AMH7/AML7 (antibody, IgG2, V domains shown, human mAb from IgG2 XenoMouse mice; also called AM-7; antibody D) VH: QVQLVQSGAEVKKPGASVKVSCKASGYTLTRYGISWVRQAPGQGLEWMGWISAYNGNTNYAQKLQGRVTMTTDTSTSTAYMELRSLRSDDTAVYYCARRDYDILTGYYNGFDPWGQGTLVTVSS VL: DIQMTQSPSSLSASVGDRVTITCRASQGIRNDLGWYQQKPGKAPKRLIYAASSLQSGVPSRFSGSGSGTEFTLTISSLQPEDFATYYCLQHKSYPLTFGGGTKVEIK", 2980],
  ["AMH12/AML12 (antibody, IgG2, V domains shown, human mAb from IgG2 XenoMouse mice; also called AM-12; antibody M) VH: QVQLVQSGAEVKKPGASVKVSCKASGYTLTSYGISWVRQAPGQGLEWMGWISTYKGNTNYAQKLQGRVTMTTDTSTSTAYMELRSLRSDDTAVYYCARKQLVFDYWGQGTLVTVSS VL: EIVMTQSPATLSVSPGERATLSCRASQSISSSLAWYQQKPGQAPRLLIYGASTRATGIPARFSGSGSGTEFTLTISSLQSENFAVYYCQQYDNWPLTFGGGTKVEIK", 20],
  ["AMH6/AML6 (antibody, IgG2, V domains shown, human mAb from IgG2 XenoMouse mice; also called AM-6; antibody E) VH: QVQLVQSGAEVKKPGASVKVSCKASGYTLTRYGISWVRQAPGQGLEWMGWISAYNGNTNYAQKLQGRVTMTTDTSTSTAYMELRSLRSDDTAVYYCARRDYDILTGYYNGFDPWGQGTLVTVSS VL: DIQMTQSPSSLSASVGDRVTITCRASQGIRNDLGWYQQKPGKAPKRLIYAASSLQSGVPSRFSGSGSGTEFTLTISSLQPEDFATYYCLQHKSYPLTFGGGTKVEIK", 1770],
  ["AMH21/AML21 (antibody, IgG2, V domains shown, human mAb from IgG2 XenoMouse mice; also called AM-21; antibody Q) VH: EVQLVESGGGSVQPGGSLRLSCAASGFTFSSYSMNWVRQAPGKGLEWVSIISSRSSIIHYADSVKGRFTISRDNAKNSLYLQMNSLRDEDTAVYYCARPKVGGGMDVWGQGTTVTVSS VL: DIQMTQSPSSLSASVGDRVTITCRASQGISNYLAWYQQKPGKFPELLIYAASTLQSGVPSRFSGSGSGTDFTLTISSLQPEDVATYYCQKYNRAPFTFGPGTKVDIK", 44.5],
  ["AMH16/AML16 (antibody, IgG2, V domains shown, human mAb from IgG2 XenoMouse mice; also called AM-16; antibody O) VH: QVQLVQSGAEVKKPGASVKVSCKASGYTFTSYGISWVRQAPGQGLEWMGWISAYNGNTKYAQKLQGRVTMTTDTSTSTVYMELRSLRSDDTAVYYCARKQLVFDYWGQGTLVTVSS VL: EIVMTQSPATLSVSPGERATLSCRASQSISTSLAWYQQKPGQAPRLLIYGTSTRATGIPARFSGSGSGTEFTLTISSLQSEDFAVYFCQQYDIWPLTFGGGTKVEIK", 73]
]}

Now, please, on to the next binder.
Briefly, normalized MFI measured for AMH8/AML8 (antibody, IgG2, V domains shown, human mAb from IgG2 XenoMouse mice; also called AM-8; antibody C) VH: QVQLVQSGAEVKKPGASVKVSCKASGNTFTGYGISWVRQAPGQGLEWMGWISAYNGNTNYAQNLQGRVTMTTDTSTSTAYMELRSLRSDDTAVYYCARRDYDILTGYYNGFDPWGQGTLVTVSS VL: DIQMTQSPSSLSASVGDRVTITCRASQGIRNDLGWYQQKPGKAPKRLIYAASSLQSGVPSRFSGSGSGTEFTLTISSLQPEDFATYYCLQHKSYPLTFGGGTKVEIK : 2880
